Test system: HCT-15 colon
ASSAY_REMARKS: NCI tumour cell line growth inhibition, 48 h
OUTCOME_MEASURE: TGI

COC(=O)[C@H](Cc1cn(C)cn1)NC(=O)[C@H](Cc1ccccc1)NC(=O)Nc1cc(C(F)(F)F)cc(C(F)(F)F)c1: 42.4 µM
CC(=O)[O-].N.N.N.N.[Co+3].[O-][Cl+3]([O-])([O-])[O-].[OH3+]: > 100 µM
CCOC(=O)/C=C/c1cccc(F)c1: > 100 µM

**Query** Which TGI value belongs to Cc1cccc2c1[nH]c(=O)c1c3ccccc3cn21 ?
**Result** 31.7 µM

**Query** Which TGI value belongs to CO/N=C(\COc1ccc2oc(-c3ccccc3)cc(=O)c2c1)c1ccc(F)cc1 ?
**Result** > 100 µM

**Query** Which TGI value belongs to C[C@@H]1CC[C@@]2(NC1)O[C@H]1C[C@H]3[C@@H]4CC[C@H]5C[C@@H](O)CC[C@]5(C)[C@H]4CC[C@]3(C)[C@H]1[C@@H]2C ?
**Result** > 100 µM

**Query** Which TGI value belongs to C[N+](C)=c1ccc2nc3c(cc(NCCCNc4cc5oc6cc(=[N+](C)C)ccc-6nc5c5ccccc45)c4ccccc43)oc-2c1 ?
**Result** 6.33 µM

**Query** Which TGI value belongs to Cc1cn(S(=O)(=O)c2ccccc2)c2c(OCc3ccccc3)cc(NC(=O)c3cc4cc([N+](=O)[O-])ccc4s3)cc12 ?
**Result** > 100 µM

**Query** Which TGI value belongs to O=C(c1ccco1)N(C(=O)N1CCC(c2ccccc2)CC1)c1ccccc1 ?
**Result** > 100 µM

**Query** Which TGI value belongs to COC(=O)N[C@H]1CCc2c(Cl)c(OC)c(OC)c(OC)c2-c2ccc(SC)c(=O)cc21 ?
**Result** > 43.9 µM

**Query** Which TGI value belongs to CCOC(=O)c1c(-c2ccccc2)c(OC)cn1C ?
**Result** > 10 µM

**Query** Which TGI value belongs to CC1=CCCC2C(C=O)(C1)CC(C)C2(CO)CC/C(=C/CO)CO (stereo not given) ?
**Result** > 100 µM

* * *

Tested on: OVCAR-3 ovarian
ASSAY_REMARKS: NCI tumour cell line growth inhibition, 48 h
OUTCOME_MEASURE: TGI

CC(C)=CCC[C@@H](C)C1=C(Nc2ccccc2F)C(O)=C(C)C(=O)C1=O: > 100 µM
CCCn1cc2c3c(cccc31)C1C=C(C)CN(C)C1C2 (stereo unspecified): 52.6 µM
CC(SCc1ccccc1)C(=O)O (stereo unspecified): > 100 µM
O=C(NC(C(F)(F)F)(C(F)(F)F)P(=O)(Cc1ccccc1)Cc1ccccc1)C(C(F)(F)F)C(F)(F)F: > 100 µM
CC/C=N\N1C(N)=C(C#N)C(C#N)(C#N)C1CC (stereo unspecified): > 100 µM
Cc1nc2c(=O)n(-c3ccccc3)c(=O)n(-c3ccccc3)c2o1: > 100 µM

**Query** Which TGI value belongs to CC(=N/NC(=S)N(C)C)/C(=N\NC(=S)N(C)C)c1ccccc1 ?
**Result** 3.68 µM

**Query** Which TGI value belongs to C=C1C(=O)O[C@H]2C[C@@H]1C(=O)CC(C)CCCC(C)=CCC[C@@]2(C)O (stereo partly specified) ?
**Result** > 25 µM

**Query** Which TGI value belongs to CC(C)(C)OC(=O)N[C@@H](Cc1ccccc1)C(=O)N(Cc1ccccc1)C1(C(=O)NCc2ccccc2)CCN(Cc2ccccc2)CC1 ?
**Result** > 100 µM

**Query** Which TGI value belongs to CC1=NOC(=O)/C1=C/c1ccc2c(c1)OCO2 ?
**Result** 98.9 µM

**Query** Which TGI value belongs to Oc1ccccc1/C=N/N1C(=S)N(C23CC4CC(CC(C4)C2)C3)C(=Nc2ccccc2)C1=Nc1ccccc1 ?
**Result** > 100 µM

**Query** Which TGI value belongs to Cc1cc(-c2ccccc2)nc2oc(=O)n(C)c12 ?
**Result** > 100 µM

**Query** Which TGI value belongs to COc1cc(/C=C2\CCCC3=C2N=C2SC(C)=NN2C3c2cc(OC)c(OC)c(OC)c2)cc(OC)c1OC (stereo unspecified) ?
**Result** > 100 µM

**Query** Which TGI value belongs to COc1ccc(C2c3cc4c(cc3OC(Nc3ccccc3)C2C)OCO4)cc1 (stereo unspecified) ?
**Result** > 100 µM

**Query** Which TGI value belongs to CC[PH+](CC)CC.[Cl][Au] ?
**Result** 3.42 µM
